assayed target: pERK1/2 (Thr202/Tyr204), NCI-1H441 (KRAS G12V) (Homo sapiens, UniProt P01116, G12V)
Construct: pERK1/2 HTRF read-out
Sequence (P01116 1-188 isoform P01116-2 G12V): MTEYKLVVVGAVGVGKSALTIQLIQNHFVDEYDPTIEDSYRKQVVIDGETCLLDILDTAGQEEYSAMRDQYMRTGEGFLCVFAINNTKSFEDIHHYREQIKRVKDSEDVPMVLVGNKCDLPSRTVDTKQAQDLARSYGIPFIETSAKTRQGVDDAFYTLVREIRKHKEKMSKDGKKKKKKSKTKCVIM
experiment: Assay of intracellular pERK1/2 (Thr202/Tyr204) phosphorylation in NCI-H441 cells (KRAS G12V)
Assay type: cell-based
run parameters: pERK1/2, 2 days, read-out: NCI-H441 (KRAS G12V) IC50
Could you mark each record true if its IC50 falls strictly under 2 nM, and false if it equals or exceeds it?

The examples below pair each entry with its known result.
C[C@H](c1cccnc1N)N1CCOc2nc(-c3cc(O)cc(Cl)c3C3CC3)c(F)c3nc(OC[C@@H]4CCN4CC(F)F)nc1c23 (single isomer, unassigned) | false
CC(c1cccnc1N)N1CCOc2nc(-c3c(C(F)(F)F)ccc4[nH]ncc34)c(F)c3nc(OC[C@@]45CCCN4C[C@H](F)C5)nc1c23 (stereo partly shown) | false
Cc1ccnc(N)c1C(C)N1CCOc2nc(-c3cc(N)c(F)c(C)c3C(F)(F)F)c(F)c3nc(OC[C@@]45CCCN4C[C@H](F)C5)nc1c23 (single isomer, unassigned) [Compound 258] | false
CNc1ncccc1C(C)N1CCOc2nc(-c3cc(N)c(F)c(C)c3C(F)(F)F)c(F)c3nc(OC[C@@]45CCCN4C[C@H](F)C5)nc1c23 (single isomer, unassigned) [Compound 264] | false

Task: Regarding C#Cc1c(F)ccc2cc(O)cc(-c3nc4c5c(nc(OC[C@@H]6C[C@@H](F)CN6C)nc5c3F)N(C(C)c3cccnc3N)[C@@H](C)CO4)c12 (single isomer, unassigned) [Compound 285] , kindly confirm whether its IC50 is beneath 2 nM.
Output: false

Task: Regarding [2H]C1([2H])CC[C@@]2(C([2H])([2H])Oc3nc4c5c(nc(-c6cc(N)cc(C)c6C(F)(F)F)c(F)c5n3)OCCN4C(C)c3cccnc3N)C[C@@H](F)CN12 (stereo partly shown) [Compound 105] , kindly confirm whether its IC50 is beneath 2 nM.
Output: true

Task: Regarding CC(c1cccnc1N)N1CCOc2nc(-c3cccc4sc(N)nc34)c(F)c3nc(OC[C@@H]4CCN4CC(F)F)nc1c23 (stereo partly shown) , kindly confirm whether its IC50 is beneath 2 nM.
Output: false

Task: Regarding CC(c1cccnc1N)N1CCOc2nc(-c3cc(N)c(F)c(Cl)c3C(F)(F)F)c(F)c3nc(OC[C@@H]4C[C@@H](F)CN4C)nc1c23 (stereo partly shown) , kindly confirm whether its IC50 is beneath 2 nM.
Output: true

Task: Regarding CC(c1cccnc1N)N1CCOc2nc(-c3cc(N)c(F)c(F)c3F)c(F)c3nc(OC[C@@]45CCCN4C[C@H](F)C5)nc1c23 (stereo partly shown) , kindly confirm whether its IC50 is beneath 2 nM.
Output: false

Task: Regarding [2H]C([2H])([2H])N1CCC[C@H]1COc1nc2c3c(nc(-c4cc(N)cc(Cl)c4C(F)(F)F)c(F)c3n1)OCCN2C(C)c1cccnc1N (stereo partly shown) , kindly confirm whether its IC50 is beneath 2 nM.
Output: true

Task: Regarding Cc1cc(N)cc(-c2nc3c4c(nc(OC[C@@H]5C[C@@H](F)CN5C)nc4c2F)N(C(C)c2cccnc2N)CCO3)c1C(F)(F)F (single isomer, unassigned) [Compound 81] , kindly confirm whether its IC50 is beneath 2 nM.
Output: false

Task: Regarding CC(c1cccnc1N)N1c2nc(OC[C@@]34CCCN3C[C@H](F)C4)nc3c(F)c(-c4c(C(F)(F)F)ccc5ncccc45)nc(c23)OC[C@@H]1C (stereo partly shown) , kindly confirm whether its IC50 is beneath 2 nM.
Output: false

Task: Regarding `Cc1c(F)c(N)cc(-c2nc3c4c(nc(OC[C@@]56CCCN5C[C@H](F)C6)nc4c2F)N(C2(c4cccnc4N)CC2)CCO3)c1C(F)(F)F` , kindly confirm whether its IC50 is beneath 2 nM.
Output: false

Task: Regarding CC(c1cccnc1N)N1c2nc(OC[C@@]34CCCN3C[C@H](F)C4)nc3c(F)c(-c4ccc(F)c5sc(N)c(C(N)=O)c45)nc(c23)OC[C@@H]1C (stereo partly shown) , kindly confirm whether its IC50 is beneath 2 nM.
Output: false

Task: Regarding Cc1cc2[nH]ncc2c(-c2nc3c4c(nc(OC[C@@]56CCCN5C[C@H](F)C6)nc4c2F)N(C(C)c2cccnc2N)[C@@H](C)CO3)c1C1CC1 (stereo partly shown) , kindly confirm whether its IC50 is beneath 2 nM.
Output: true

Task: Regarding CC(c1cccnc1N)N1CCOc2nc(-c3cc(O)cc(Cl)c3C(F)(F)F)c(F)c3nc(OC[C@@]45CCCN4C[C@H](F)C5)nc1c23 (single isomer, unassigned) [Compound 58] , kindly confirm whether its IC50 is beneath 2 nM.
Output: false

Task: Regarding CCc1c(F)ccc2cc(O)cc(-c3nc4c5c(nc(OC[C@@H]6C[C@@H](F)CN6C)nc5c3F)N(C(C)c3cccnc3N)[C@@H](C)CO4)c12 (stereo partly shown) , kindly confirm whether its IC50 is beneath 2 nM.
Output: true

Task: Regarding Cc1cc(N)nc(-c2nc3c4c(nc(OC[C@@]56CCCN5C[C@H](F)C6)nc4c2F)N(C(C)c2cccnc2N)[C@@H](C)CO3)c1C(F)(F)F (stereo partly shown) , kindly confirm whether its IC50 is beneath 2 nM.
Output: false
